Tested on: H1N1 A/Solomon Island/03/2006
Format: cell-based, influenza A virus
Conditions: Influenza A H1N1 A/Solomon Is./3/2006-M; Drug Assay Neutral Red; read-out: EC50
Bridge positions count the residues as written; N and C are the ends. Square brackets hold non-standard residues; d marks the D form. Peptide text beside a SMILES is read from it. R8 = C=CCCCCCC[C@@](C)(N)C(=O)O; S5 = C=CCCC[C@](C)(N)C(=O)O; Nle = CCCC[C@H](N)C(=O)O; Aib = CC(C)(N)C(=O)O
Listed below: pEC50 values for each entry.
Note on units: pEC50 is unitless, being -log10 of a concentration expressed in mol/L.

INSERT INTO assay_data (molecule, observation_type, experimental_result) VALUES
  ('CCCC[C@H](NC(C)=O)C(=O)N[C@@H](CC(=O)O)C(=O)N[C@H](C(=O)N[C@@H](CC(N)=O)C(=O)N[C@]1(C)CCCCCCC=CCCC[C@@](C)(C(=O)N[C@@H](CCC(N)=O)C(=O)N[C@@H](C)C(=O)N[C@@H](C)C(=O)N[C@@H](C)C(=O)N[C@@H](C)C(N)=O)NC(=O)[C@H](C)NC(=O)[C@H](CC(C)C)NC(=O)[C@H](Cc2ccccc2)NC(=O)[C@H](CC(C)C)NC(=O)[C@H](CC(C)C)NC(=O)[C@H]([C@@H](C)O)NC1=O)C(C)C [SP-27] (Ac-[Nle]DVN[R8]TLLFLA[S5]QAAAA-NH2; staple 5-12)', 'pEC50', 4.12);

Inquiry: Complete the entry with pEC50 for CCCC[C@H](NC(C)=O)C(=O)N[C@@H](CC(=O)O)C(=O)N[C@H](C(=O)N[C@@H](CC(N)=O)C(=O)N[C@@]1(C)CCCC=CCCC[C@@](C)(C(=O)N[C@@H](CC(C)C)C(=O)N[C@@H](C)C(=O)N[C@H](C(=O)N[C@@H](CCC(N)=O)C(=O)NC(C)(C)C(=O)N[C@@H](C)C(=O)N[C@@H](C)C(=O)N[C@@H](C)C(N)=O)C(C)C)NC(=O)[C@H](CC(C)C)NC(=O)[C@H](CC(C)C)NC(=O)[C@H]([C@@H](C)O)NC1=O)C(C)C [SP-21] (Ac-[Nle]DVN[S5]TLL[S5]LAVQ[Aib]AAA-NH2; staple 5-9)
Reply text: 5.28

Inquiry: Output measured pEC50 for this item: CCCC[C@H](NC(C)=O)C(=O)N[C@@H](CC(=O)O)C(=O)N[C@H](C(=O)N[C@@H](CC(N)=O)C(=O)N[C@]1(C)CCCCCCC=CCCC[C@@](C)(C(=O)N[C@@H](C)C(=O)N[C@@H](C)C(=O)N[C@@H](CCC(N)=O)C(N)=O)NC(=O)[C@H](C)NC(=O)[C@H](CC(C)C)NC(=O)[C@H](Cc2ccccc2)NC(=O)[C@H](CC(C)C)NC(=O)[C@H](CC(C)C)NC(=O)[C@H]([C@@H](C)O)NC1=O)C(C)C [SP-18] (Ac-[Nle]DVN[R8]TLLFLA[S5]AAQ-NH2; staple 5-12)
Reply text: 4.54

Inquiry: State its pEC50: CCCC[C@H](NC(C)=O)C(=O)N[C@@H](CC(=O)O)C(=O)N[C@H](C(=O)N[C@@H](CC(N)=O)C(=O)N[C@]1(C)CCCCCCC=CCCC[C@@](C)(C(=O)N[C@@H](C)C(=O)N[C@@H](C)C(=O)N[C@@H](C)C(=O)N[C@@H](C)C(=O)N[C@@H](C)C(N)=O)NC(=O)[C@H](C)NC(=O)[C@H](CC(C)C)NC(=O)[C@H](Cc2ccccc2)NC(=O)[C@H](CC(C)C)NC(=O)[C@H](CC(C)C)NC(=O)[C@H]([C@@H](C)O)NC1=O)C(C)C [SP-25] (Ac-[Nle]DVN[R8]TLLFLA[S5]AAAAA-NH2; staple 5-12)
Reply text: 5.19

----------
Tested on: influenza virus, various viral strains
Assay: Influenza antiviral evaluation assay (CPE, neutral red dye uptake) in MDCK cells against various viral strains (Tables 8, 9)
Format: cell-based
Settings: MDCK
observation-type: EC50 (µM)
Expressed in µM, but write only the number.

Inquiry: Could you please provide reported EC50 for NC(=O)c1ncn([C@@H]2O[C@H](CO)[C@@H](O)[C@H]2O)n1 [Ribavirin, reference compound] ? Thanks!
Reply text: 9.8

----------
Assay: in vitro
Settings: dog, CC50, MDCK cells; run with Influenza B Sichuan/379/99-M; Visual
Bridge positions count the residues as written; N and C are the ends. Square brackets hold non-standard residues; d marks the D form. Peptide text beside a SMILES is read from it. S5 = C=CCCC[C@](C)(N)C(=O)O; Nle = CCCC[C@H](N)C(=O)O; Aib = CC(C)(N)C(=O)O
observation-type: CC50

Inquiry: Identify the reported CC50 for the following entry. CCCC[C@H](NC(C)=O)C(=O)N[C@@H](CC(=O)O)C(=O)N[C@H](C(=O)N[C@@H](CC(N)=O)C(=O)N[C@@]1(C)CCCC=CCCC[C@@](C)(C(=O)N[C@@H](CC(C)C)C(=O)N[C@@H](C)C(=O)N[C@H](C(=O)NC(C)(C)C(=O)N[C@@H](C)C(=O)N[C@@H](CCC(N)=O)C(N)=O)C(C)C)NC(=O)[C@H](CC(C)C)NC(=O)[C@H](CC(C)C)NC(=O)[C@H]([C@@H](C)O)NC1=O)C(C)C [SP-6] (Ac-[Nle]DVN[S5]TLL[S5]LAV[Aib]AQ-NH2; staple 5-9)
Reply text: > 100 µM

----------
Tested on: influenza virus, various viral strains
Experiment: organism not typed
Assay type: cell-based
Details: MDCK, Influenza A H5N1 A/Hong Kong/213/2003; Drug Assay Visual
observation-type: pEC50
Kindly note that pEC50 refers to -log10 of the concentration in mol/L and answer with the value alone.

Inquiry: Return pEC50 for the following molecule: NC(=O)c1ncn([C@@H]2O[C@H](CO)[C@@H](O)[C@H]2O)n1 [Ribavirin, reference compound]
Reply text: 5.38

----------
Test system: H5N1 A/Duck/MN/1525/81
Assay: microbe, parasite or virus in culture
Type: cell-based, influenza A virus
Settings: Influenza A virus, H5N1, MDCK, Influenza A H5N1 Duck/MN/1525/81; Neutral Red
observation-type: pEC50
pEC50 field: float, defined as -log10 of concentration (mol/L).

Inquiry: For NC(=O)c1ncn([C@@H]2O[C@H](CO)[C@@H](O)[C@H]2O)n1 [Ribavirin, reference compound] , write its pEC50.
Reply text: 5.02

----------
Assay: in vitro
Conditions: dog, CC50, run with Influenza A H1N1 California/07/20/09 (so in the source), later run; Neutral Red
Bridge positions count the residues as written; N and C are the ends. Square brackets hold non-standard residues; d marks the D form. Peptide text beside a SMILES is read from it. R8 = C=CCCCCCC[C@@](C)(N)C(=O)O; S5 = C=CCCC[C@](C)(N)C(=O)O; Nle = CCCC[C@H](N)C(=O)O; Aib = CC(C)(N)C(=O)O
observation-type: CC50

INSERT INTO assay_data (compound, experimental_result) VALUES
  ('CCCC[C@H](NC(C)=O)C(=O)N[C@@H](CC(=O)O)C(=O)N[C@H](C(=O)N[C@@H](CC(N)=O)C(=O)N[C@]1(C)CCCCCCC=CCCC[C@@](C)(C(=O)N[C@@H](C)C(=O)N[C@@H](C)C(=O)N[C@@H](C)C(=O)N[C@@H](C)C(=O)N[C@@H](C)C(N)=O)NC(=O)[C@H](C)NC(=O)[C@H](CC(C)C)NC(=O)[C@H](Cc2ccccc2)NC(=O)[C@H](CC(C)C)NC(=O)[C@H](CC(C)C)NC(=O)[C@H]([C@@H](C)O)NC1=O)C(C)C [SP-25] (Ac-[Nle]DVN[R8]TLLFLA[S5]AAAAA-NH2; staple 5-12)', '> 100 µM'),
  ('CCCC[C@H](NC(C)=O)C(=O)N[C@@H](CC(=O)O)C(=O)N[C@H](C(=O)N[C@@H](CC(N)=O)C(=O)N[C@]1(C)CCCCCCC=CCCC[C@@](C)(C(=O)N[C@@H](CCC(N)=O)C(=O)N[C@@H](C)C(=O)N[C@@H](C)C(=O)N[C@@H](C)C(=O)N[C@@H](C)C(N)=O)NC(=O)[C@H](C)NC(=O)[C@H](CC(C)C)NC(=O)[C@H](Cc2ccccc2)NC(=O)[C@H](CC(C)C)NC(=O)[C@H](CC(C)C)NC(=O)[C@H]([C@@H](C)O)NC1=O)C(C)C [SP-27] (Ac-[Nle]DVN[R8]TLLFLA[S5]QAAAA-NH2; staple 5-12)', '> 100 µM');

Inquiry: Annotate the compound CCCC[C@H](NC(C)=O)C(=O)N[C@@H](CC(=O)O)C(=O)N[C@H](C(=O)N[C@@H](CC(N)=O)C(=O)N[C@@]1(C)CCCC=CCCC[C@@](C)(C(=O)N[C@@H](CC(C)C)C(=O)N[C@@H](C)C(=O)N[C@H](C(=O)N[C@@H](CCC(N)=O)C(=O)NC(C)(C)C(=O)N[C@@H](C)C(=O)N[C@@H](C)C(=O)N[C@@H](C)C(N)=O)C(C)C)NC(=O)[C@H](CC(C)C)NC(=O)[C@H](CC(C)C)NC(=O)[C@H]([C@@H](C)O)NC1=O)C(C)C [SP-21] (Ac-[Nle]DVN[S5]TLL[S5]LAVQ[Aib]AAA-NH2; staple 5-9) with its measured CC50.
Reply text: > 100 µM

The measured values listed here are drawn from patent US10059741B2.
